# TEST_NAME: Caspase-3/7 induction in CHO-K1 cells by small molecules, qHTS cell viability counter screen (AID 1346979); also: nearly all actives have a fitted effect of over 35% in size
# ASSAY_CONTEXT: CellTiter-Fluor fluorescence, 17 h; series mostly up to 92.4 µM
Inconclusive results are not listed. Activity calls are given as the source filed them. Calls follow the shape of the dose curve; as a rule, active = well fitted cell-killing curve with a large enough effect in the repeat runs; inconclusive = weak or mixed curves, or effect the other way; inactive = no such curve, though single readings can be large or run the other way.
Classes used: yes (1) for active, no (0) for inactive

{"MOLECULE": "CCCCCCCCCCCCN1CCOCC1", "CLASS_NAME": "no (0)"}
{"MOLECULE": "CCC1=C(C)CN(C(=O)NCCc2ccc(S(=O)(=O)NC(=O)NC3CCC(C)CC3)cc2)C1=O (stereo not given)", "CLASS_NAME": "no (0)"}
{"MOLECULE": "CCOc1ccc(NC(C)=O)cc1N", "CLASS_NAME": "no (0)"}
{"MOLECULE": "COc1ccc(/C=C/S(=O)(=O)NC(=O)c2ccc(C)cc2Cl)cc1", "CLASS_NAME": "no (0)"}
{"MOLECULE": "C=C[Si]1(C)O[Si](C)(C=C)O[Si](C)(C=C)O[Si](C)(C=C)O1 (stereo not given)", "CLASS_NAME": "no (0)"}
{"MOLECULE": "Nc1ccccc1Nc1ccccc1", "CLASS_NAME": "yes (1)"}
{"MOLECULE": "Cc1cccc(C)c1NC(=O)CN1CCCC1", "CLASS_NAME": "no (0)"}
{"MOLECULE": "CCCCCCCCNC", "CLASS_NAME": "no (0)"}
{"MOLECULE": "NC(=O)c1ccccc1C(N)=O", "CLASS_NAME": "no (0)"}
{"MOLECULE": "CCc1ccc(C(=O)C(C)CN2CCCCC2)cc1 (stereo not given)", "CLASS_NAME": "no (0)"}
{"MOLECULE": "CCOc1cc(OCC)c(C(C)=O)cc1OCC", "CLASS_NAME": "yes (1)"}
{"MOLECULE": "COc1ccc(/C(C)=C/C(=O)O)c(OC)c1", "CLASS_NAME": "no (0)"}
{"MOLECULE": "N#Cc1ccc(CC(=O)c2cccc(C(F)(F)F)c2)cc1", "CLASS_NAME": "no (0)"}
{"MOLECULE": "CC(O)C(C)O (stereo not given)", "CLASS_NAME": "no (0)"}
{"MOLECULE": "CCC[Si](OC)(OC)OC", "CLASS_NAME": "no (0)"}
{"MOLECULE": "O=C(OCCCCCOC(=O)c1ccccc1)c1ccccc1", "CLASS_NAME": "no (0)"}
{"MOLECULE": "SCCOCCOCCS", "CLASS_NAME": "no (0)"}
{"MOLECULE": "CCCC(=O)OCCC(C)C", "CLASS_NAME": "no (0)"}
{"MOLECULE": "Clc1nc2ccccc2nc1Cl", "CLASS_NAME": "no (0)"}
{"MOLECULE": "CCOc1ccc2c(c1)C(C)CC(C)(C)N2 (stereo not given)", "CLASS_NAME": "no (0)"}
{"MOLECULE": "CCC(CC)C(=O)O", "CLASS_NAME": "no (0)"}
{"MOLECULE": "Nc1cccc2c(=O)[nH][nH]c(=O)c12", "CLASS_NAME": "no (0)"}
{"MOLECULE": "C(/C=C/C=C/Nc1ccccc1)=Nc1ccccc1", "CLASS_NAME": "no (0)"}
{"MOLECULE": "CC(Cc1ccccc1)(NC(=O)CN)c1ccccc1 (stereo not given)", "CLASS_NAME": "no (0)"}
{"MOLECULE": "CCCCOC(=O)CC#N", "CLASS_NAME": "no (0)"}
{"MOLECULE": "CC(C)C[C@H](NC(=O)[C@H](Cc1ccccc1)NC(=O)c1cnccn1)B(O)O", "CLASS_NAME": "yes (1)"}
{"MOLECULE": "CCC(=O)O[C@]1(C(=O)COC)[C@@H](C)C[C@H]2[C@@H]3CCC4=CC(=O)C=C[C@]4(C)C3(F)[C@@H](O)C[C@@]21C (stereo not given in full)", "CLASS_NAME": "no (0)"}
{"MOLECULE": "CC(C(=O)O)c1ccc(/C=C2\\CCCCC2=O)cc1 (stereo not given)", "CLASS_NAME": "no (0)"}
{"MOLECULE": "Cc1ccccc1CCO", "CLASS_NAME": "no (0)"}
{"MOLECULE": "CCCc1nc(C)c2c(=O)[nH]c(-c3cc(S(=O)(=O)N4CCN(CC)CC4)ccc3OCC)nn12", "CLASS_NAME": "no (0)"}
{"MOLECULE": "CC1(C)[C@@H]2CC[C@]3(C2)[C@@H]1C(=O)CCC3(C)C", "CLASS_NAME": "no (0)"}
{"MOLECULE": "CCCCCCOC(=O)c1ccccc1", "CLASS_NAME": "no (0)"}
{"MOLECULE": "CCn1nc(Cc2ccccc2)cc1C1CCN(C[C@H]2C[C@H](N(C)[C@@H](C(=O)O)C(C)C)C[C@@H]2c2cccc(F)c2)CC1", "CLASS_NAME": "no (0)"}
{"MOLECULE": "Cc1nc2sccn2c(=O)c1CCN1CCC(=C(c2ccc(F)cc2)c2ccc(F)cc2)CC1", "CLASS_NAME": "no (0)"}
{"MOLECULE": "CC1=C(C)C(=O)C(C(CCCCCC(=O)O)c2ccccc2)=C(C)C1=O (stereo not given)", "CLASS_NAME": "yes (1)"}
{"MOLECULE": "CC(C)(Cc1c[nH]c2ccccc12)NCC(O)COc1ccccc1C#N (stereo not given)", "CLASS_NAME": "no (0)"}
{"MOLECULE": "CC(=O)Oc1cccc2c1C(=O)c1c(OC(C)=O)cc(C(=O)O)cc1C2=O", "CLASS_NAME": "yes (1)"}
{"MOLECULE": "CO[C@@H]1COCC[C@@H]1N[C@@H]1CC[C@@](C(=O)N2CCc3ncc(C(F)(F)F)cc3C2)(C(C)C)C1", "CLASS_NAME": "no (0)"}
{"MOLECULE": "O=C(O)c1ccc2cc(O)ccc2c1", "CLASS_NAME": "no (0)"}
{"MOLECULE": "Cc1ccc2ccccc2c1[N+](=O)[O-]", "CLASS_NAME": "no (0)"}
{"MOLECULE": "O=C(c1ccc(Cl)cc1)c1ccc(Cl)cc1", "CLASS_NAME": "no (0)"}
{"MOLECULE": "CCCCCCCCS", "CLASS_NAME": "no (0)"}
{"MOLECULE": "CCCC(=O)OCc1ccccc1", "CLASS_NAME": "no (0)"}
{"MOLECULE": "Cc1ccc(NC=O)c(C)c1", "CLASS_NAME": "no (0)"}
{"MOLECULE": "CC(C)CCCCCOC(=O)CS", "CLASS_NAME": "no (0)"}
{"MOLECULE": "CCOC(=O)CC(O)(CC(=O)OCC)C(=O)OCC", "CLASS_NAME": "no (0)"}
{"MOLECULE": "Nc1ccc(-c2ccc(F)cc2)cc1", "CLASS_NAME": "no (0)"}
{"MOLECULE": "CCCCCCC/C=C/C=O", "CLASS_NAME": "no (0)"}
{"MOLECULE": "Cc1c(Nc2ncccc2C(=O)O)cccc1C(F)(F)F", "CLASS_NAME": "no (0)"}
{"MOLECULE": "O=[N+]([O-])c1ccc(Cl)cc1Cl", "CLASS_NAME": "no (0)"}
{"MOLECULE": "CCC(C)CCCC(C)(C)O (stereo not given)", "CLASS_NAME": "no (0)"}
{"MOLECULE": "O=C(Cl)c1cc(Cl)cc(Cl)c1", "CLASS_NAME": "no (0)"}
{"MOLECULE": "CC(CCl)OC(C)CCl (stereo not given)", "CLASS_NAME": "no (0)"}
{"MOLECULE": "c1ccc(CCNc2nc(-c3ccccc3)cs2)cc1", "CLASS_NAME": "no (0)"}
{"MOLECULE": "CC(C)(C)N", "CLASS_NAME": "no (0)"}
